As a worked illustration, we turn to Kd data collected for Serine/threonine-protein kinase D2 (Homo sapiens).
The source made the active and inactive calls.

Some compounds with known Kd results, for comparison:
[
  {
    "COMPOUND": "O=C(Nc1ccc(-c2ccnc(Nc3ccc(N4CCOCC4)cc3)n2)cc1)C1CCCN1 (stereo not drawn)",
    "Kd": "66.9 µM (active)"
  },
  {
    "COMPOUND": "COc1cc2nccc(Oc3ccc(NC(=O)Nc4cc(C)on4)c(Cl)c3)c2cc1OC",
    "Kd": "> 30 µM (inactive)"
  },
  {
    "COMPOUND": "COc1cc2nccc(Oc3ccc(NC(=O)NC4CC4)c(Cl)c3)c2cc1C(N)=O",
    "Kd": "> 30 µM (inactive)"
  },
  {
    "COMPOUND": "CNS(=O)(=O)Nc1nccc(Cc2c(C)c3ccc(Oc4ncccn4)cc3oc2=O)c1F",
    "Kd": "> 30 µM (inactive)"
  }
]

Need Kd, item `COc1cc(N2CCC(N3CCN(C)CC3)CC2)ccc1Nc1ncnc(Nc2ccccc2S(=O)(=O)C(C)C)n1` 2.67 µM (active)

Returns the measured Kd for the input compound. Input: `CO[C@H]1C[C@@H]2CC[C@@H](C)[C@@](O)(O2)C(=O)C(=O)N2CCCC[C@H]2C(=O)O[C@H]([C@H](C)C[C@@H]2CC[C@@H](OCCO)[C@H](OC)C2)CC(=O)[C@H](C)/C=C(\C)[C@@H](O)[C@@H](OC)C(=O)[C@H](C)C[C@H](C)/C=C/C=C/C=C/1C` > 30 µM (inactive)

Which Kd is reported for this compound? `Cn1cc(-c2ccc(F)c(C(F)(F)F)c2)nc1C1CCN(c2ncnc3[nH]ncc23)CC1` > 30 µM (inactive)

Returns the measured Kd for the input compound. Input: `N[C@@H]1CCCN(c2c(/C=C3\SC(=O)NC3=O)cccc2-c2ccccc2)C1` > 30 µM (inactive)

----------
MEASURED TARGET: Serine/threonine-protein kinase 10 (Homo sapiens); also: in the data inactive means no Kd found up to 30 µM
Sequence (O94804 whole entry): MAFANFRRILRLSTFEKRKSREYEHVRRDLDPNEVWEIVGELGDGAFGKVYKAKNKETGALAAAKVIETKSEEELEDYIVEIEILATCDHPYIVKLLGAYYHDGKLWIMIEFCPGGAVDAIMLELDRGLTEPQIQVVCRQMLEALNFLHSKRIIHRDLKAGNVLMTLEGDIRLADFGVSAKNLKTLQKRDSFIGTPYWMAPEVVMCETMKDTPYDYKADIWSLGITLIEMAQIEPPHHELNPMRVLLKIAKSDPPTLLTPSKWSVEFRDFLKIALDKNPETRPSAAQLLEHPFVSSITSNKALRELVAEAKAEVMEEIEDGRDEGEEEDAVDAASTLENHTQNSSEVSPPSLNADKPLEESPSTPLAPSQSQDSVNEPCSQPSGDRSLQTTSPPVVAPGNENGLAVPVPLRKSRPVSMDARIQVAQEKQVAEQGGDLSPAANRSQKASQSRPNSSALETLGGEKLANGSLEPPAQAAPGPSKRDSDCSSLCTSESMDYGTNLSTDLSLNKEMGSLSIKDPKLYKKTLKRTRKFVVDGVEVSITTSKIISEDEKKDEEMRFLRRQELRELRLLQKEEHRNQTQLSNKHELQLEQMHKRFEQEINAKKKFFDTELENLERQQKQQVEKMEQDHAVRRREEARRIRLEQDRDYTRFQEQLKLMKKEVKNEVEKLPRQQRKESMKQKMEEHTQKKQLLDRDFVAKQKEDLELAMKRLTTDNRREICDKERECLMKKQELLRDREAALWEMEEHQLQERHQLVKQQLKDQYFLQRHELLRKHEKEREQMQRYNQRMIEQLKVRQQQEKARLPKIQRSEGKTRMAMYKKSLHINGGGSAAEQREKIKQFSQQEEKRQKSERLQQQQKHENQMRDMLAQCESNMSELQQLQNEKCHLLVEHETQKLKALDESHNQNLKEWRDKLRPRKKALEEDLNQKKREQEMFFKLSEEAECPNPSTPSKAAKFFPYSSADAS
The source made the active and inactive calls.
Field 'call' accepts Yes = active, No = inactive

[
  {
    "COMPOUND": "Cc1cc2c(F)c(Oc3ncnn4cc(OC[C@@H](C)OC(=O)[C@H](C)N)c(C)c34)ccc2[nH]1 [BRIVANIB ALANINATE]",
    "MEASURED TARGET": "Serine/threonine-protein kinase 10 (Homo sapiens)",
    "CLASSIFICATION": "Yes"
  },
  {
    "COMPOUND": "C=CC(=O)N1CCC(Oc2cc3c(Nc4ccc(Cl)c(Cl)c4F)ncnc3cc2OC)CC1 [POZIOTINIB]",
    "MEASURED TARGET": "Serine/threonine-protein kinase 10 (Homo sapiens)",
    "CLASSIFICATION": "No"
  },
  {
    "COMPOUND": "O=C(Nc1ccc(-c2ccnc(Nc3ccc(N4CCOCC4)cc3)n2)cc1)C1CCCN1 (stereo not drawn) [XL-019]",
    "MEASURED TARGET": "Serine/threonine-protein kinase 10 (Homo sapiens)",
    "CLASSIFICATION": "No"
  },
  {
    "COMPOUND": "CCn1c(=O)c(-c2cc[nH]n2)cc2c(C)nc(N)nc21 [VOXTALISIB]",
    "MEASURED TARGET": "Serine/threonine-protein kinase 10 (Homo sapiens)",
    "CLASSIFICATION": "No"
  },
  {
    "COMPOUND": "CNC(=O)c1ccc(-c2cnc3ncc(Cc4ccc5ncccc5c4)n3n2)cc1F [CAPMATINIB]",
    "MEASURED TARGET": "Serine/threonine-protein kinase 10 (Homo sapiens)",
    "CLASSIFICATION": "No"
  },
  {
    "COMPOUND": "Cc1cc(-c2cc(O)ccc2Cl)cc2nnc(Nc3ccc(OCCN4CCCC4)cc3)nc12",
    "MEASURED TARGET": "Serine/threonine-protein kinase 10 (Homo sapiens)",
    "CLASSIFICATION": "No"
  }
]

Recorded test call requested for COc1cc(CCc2cc(NC(=O)c3ccc(N4C[C@@H](C)N[C@@H](C)C4)cc3)n[nH]2)cc(OC)c1 [AZD-4547] No

State the result this test recorded for Cn1cc(-c2ccc(F)c(C(F)(F)F)c2)nc1C1CCN(c2ncnc3[nH]ncc23)CC1 [LY-2584702] . No

I would be grateful if you could indicate the recorded call for C[C@@H](c1ccc2nccn2c1)n1nnc2ncc(-c3cnn(C)c3)nc21 [SAVOLITINIB] . No

I would be grateful if you could indicate the recorded call for `Cc1ccc(S(=O)(=O)Nc2nc3ccccc3nc2Nc2ccc3nsnc3c2)cc1` . No

Returns: the outcome recorded for CC(C)Nc1cc(-c2c[nH]c(C(=O)N[C@H](CO)c3cccc(Cl)c3)c2)c(Cl)cn1 [ULIXERTINIB] in this assay. No

Field: outcome | Entry: COCCNCc1ccc(-c2cc3nccc(Oc4ccc(NC(=S)NC(=O)Cc5ccc(F)cc5)cc4F)c3s2)nc1 [GLESATINIB] No

Status in this test for Cn1cc(-c2ccc3nnc(C(F)(F)c4ccc5ncccc5c4)n3n2)cn1 [JNJ-38877605] ? No

# lookup: test call for COc1cc2nccc(Oc3ccc(NC(=O)NC4CC4)c(Cl)c3)c2cc1C(N)=O [LENVATINIB] Yes

Please let me know the test result on file for CC[C@@H]1C(=O)N(C)c2cnc(Nc3ccc(C(=O)N[C@H]4CC[C@H](N5CCN(CC6CC6)CC5)CC4)cc3OC)nc2N1C(C)C [VOLASERTIB] . No

Just curious, what result did O=C(c1ccc(F)c(F)c1Nc1ccc(I)cc1F)N1CC(O)([C@@H]2CCCCN2)C1 [COBIMETINIB] get here? No

# outcome recorded in this test, key = `CN1CC[C@@H](c2c(O)cc(O)c3c(=O)cc(-c4ccccc4Cl)oc23)[C@@H]1CO` No

----------
MEASURED TARGET: Ephrin type-B receptor 3 (Homo sapiens); also: in the data inactive means no Kd found up to 30 µM
Sequence (P54753 whole entry): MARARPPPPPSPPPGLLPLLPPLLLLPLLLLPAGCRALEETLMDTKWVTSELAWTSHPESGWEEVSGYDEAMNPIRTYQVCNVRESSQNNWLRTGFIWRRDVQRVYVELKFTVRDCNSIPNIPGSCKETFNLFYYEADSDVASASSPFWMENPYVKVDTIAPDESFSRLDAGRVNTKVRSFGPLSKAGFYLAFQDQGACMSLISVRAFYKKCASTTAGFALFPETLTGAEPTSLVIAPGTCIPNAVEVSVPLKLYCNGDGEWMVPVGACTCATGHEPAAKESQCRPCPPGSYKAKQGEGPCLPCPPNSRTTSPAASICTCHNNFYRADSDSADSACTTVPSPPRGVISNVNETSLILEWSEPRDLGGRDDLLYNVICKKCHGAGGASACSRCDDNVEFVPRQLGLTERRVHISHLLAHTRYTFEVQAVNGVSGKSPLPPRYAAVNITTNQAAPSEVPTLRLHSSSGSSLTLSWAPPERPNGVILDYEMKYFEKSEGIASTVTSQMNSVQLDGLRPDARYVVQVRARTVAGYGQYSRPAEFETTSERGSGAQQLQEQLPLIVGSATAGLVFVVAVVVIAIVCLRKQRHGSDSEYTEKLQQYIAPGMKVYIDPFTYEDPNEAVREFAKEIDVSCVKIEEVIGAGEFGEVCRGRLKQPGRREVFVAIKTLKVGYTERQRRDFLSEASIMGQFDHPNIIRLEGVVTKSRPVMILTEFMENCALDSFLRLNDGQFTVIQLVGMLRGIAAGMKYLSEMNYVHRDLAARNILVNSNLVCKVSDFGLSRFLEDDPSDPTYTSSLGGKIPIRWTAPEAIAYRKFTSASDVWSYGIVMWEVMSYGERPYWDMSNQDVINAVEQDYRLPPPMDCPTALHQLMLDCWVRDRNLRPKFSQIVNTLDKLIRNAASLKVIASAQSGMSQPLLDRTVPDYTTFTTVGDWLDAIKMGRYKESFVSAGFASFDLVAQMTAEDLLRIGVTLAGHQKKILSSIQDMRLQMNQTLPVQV
Active and inactive are the calls of the source.
Your answer must be one of the following: class 1 for active, class 0 for inactive

Answered cases to consult:
[
  {
    "MOLECULE": "CN1CCC(COc2cnc(-c3cccc(Cn4nc(-c5cccc(C#N)c5)ccc4=O)c3)nc2)CC1",
    "MEASURED TARGET": "Ephrin type-B receptor 3 (Homo sapiens)",
    "CLASSIFICATION": "class 0"
  },
  {
    "MOLECULE": "Cn1cc(-c2ccc(F)c(C(F)(F)F)c2)nc1C1CCN(c2ncnc3[nH]ncc23)CC1",
    "MEASURED TARGET": "Ephrin type-B receptor 3 (Homo sapiens)",
    "CLASSIFICATION": "class 0"
  },
  {
    "MOLECULE": "O=C(Nc1cccc(Cl)c1)Nc1ncc(CCNc2ncnc3ccsc23)s1",
    "MEASURED TARGET": "Ephrin type-B receptor 3 (Homo sapiens)",
    "CLASSIFICATION": "class 0"
  }
]

Record request — test call for `COCCNCc1ccc(-c2cc3nccc(Oc4ccc(NC(=S)NC(=O)Cc5ccc(F)cc5)cc4F)c3s2)nc1` class 0

For `COc1cc2nccc(Oc3ccc(NC(=O)Nc4cc(C)on4)c(Cl)c3)c2cc1OC` , which call appears in the assay record? class 1

Called result for `C[C@@H](c1ccc2nccn2c1)n1nnc2ncc(-c3cnn(C)c3)nc21` class 0

For `C[C@@H](Nc1cc(F)cc(F)c1)c1cc(C(=O)N(C)C)cc2c(=O)cc(N3CCOCC3)oc12` , which call appears in the assay record? class 0

Hey, what did the test say about `Cc1ccc(NC(=O)c2ccc(CN3CC[C@H](N(C)C)C3)c(C(F)(F)F)c2)cc1Nc1nccc(-c2cncnc2)n1` ? class 1

Entry Cc1cc2c(F)c(Oc3ncnn4cc(OC[C@@H](C)OC(=O)[C@H](C)N)c(C)c34)ccc2[nH]1 [BRIVANIB ALANINATE] : call = ? class 0

Write down the call the test reported for this molecule. Item: `CNC(=O)c1ccc(-c2cnc3ncc(Cc4ccc5ncccc5c4)n3n2)cc1F` class 0

What call does the record list for `Cc1nc(N)sc1-c1ccnc(Nc2ccc(N3CCOCC3)cc2)n1` ? class 0

Query: recorded result category for `OCCn1cc(-c2cnc3nnn(Cc4ccc5ncccc5c4)c3n2)cn1` in this test class 0

Tell me the assay call for `CN1CCC(CNc2ccc3ncc(-c4cccc(OC(F)(F)F)c4)n3n2)CC1` please. class 0
